This collection of values is drawn from patent US12617779B2.

Listed below: Residual rate values for each entry.
Test: Evaluation of conversion rate to active form in buffer solution (Experimental Example 1)
Type: physicochemical
Conditions: pH5.5, 1 hr, 37° C., 25 umol/L in buffer solution
Where a name gives a salt, the structure may show the parent alone.
A number alone suffices; assume %.

compound: CN1CC[C@H](c2c(OC(=O)N(C)C[C@@H]3CCCCN3)cc(O)c3c(=O)cc(-c4ccccc4Cl)oc23)[C@H](O)C1
unit_annotation: %
Residual rate: 97.3

compound: CN1CC[C@H](c2c(OC(=O)N(C)C[C@H]3CCCCN3)cc(O)c3c(=O)cc(-c4ccccc4Cl)oc23)[C@H](O)C1
unit_annotation: %
Residual rate: 95.5

compound: CCN(C[C@H]1CCCCN1)C(=O)Oc1cc(O)c2c(=O)cc(-c3ccccc3Cl)oc2c1[C@H]1CCN(C)C[C@H]1O
unit_annotation: %
Residual rate: 94.3

compound: CCN(CC1CCCCN1)C(=O)Oc1cc(O)c2c(=O)cc(-c3ccccc3Cl)oc2c1[C@H]1CCN(C)C[C@H]1O (some centres unmarked) [Example 7, dihydrochloride]
unit_annotation: %
Residual rate: 98.0

compound: CCCN(C[C@@H]1CCCCN1)C(=O)Oc1cc(O)c2c(=O)cc(-c3ccccc3Cl)oc2c1[C@H]1CCN(C)C[C@H]1O
unit_annotation: %
Residual rate: 96.4

Noted for CN1CC[C@H](c2c(OC(=O)N(CCC(F)(F)F)CC3CCCCN3)cc(O)c3c(=O)cc(-c4ccccc4Cl)oc23)[C@H](O)C1 (some centres unmarked) : its Residual rate reads 74.6

So for CN1CC[C@H](c2c(OC(=O)N(CCCC(F)(F)F)CC3CCCCN3)cc(O)c3c(=O)cc(-c4ccccc4Cl)oc23)[C@H](O)C1 (some centres unmarked) , the logged Residual rate turned out to be 54.3

The recorded Residual rate for entry CCCN(C[C@H]1CCCCN1)C(=O)Oc1cc(O)c2c(=O)cc(-c3ccccc3Cl)oc2c1[C@H]1CCN(C)C[C@H]1O equals 97.0

Measured Residual rate, CN1CC[C@H](c2c(OC(=O)N(CCF)CC3CCCCN3)cc(O)c3c(=O)cc(-c4ccccc4Cl)oc23)[C@H](O)C1 (some centres unmarked) : 79.2

GET /value?item= CC(C)N(CC1CCCCN1)C(=O)Oc1cc(O)c2c(=O)cc(-c3ccccc3Cl)oc2c1[C@H]1CCN(C)C[C@H]1O (some centres unmarked) &field=Residual rate returns 89.5

Lab book: Residual rate of CCN(C[C@@H]1CCCCN1)C(=O)Oc1cc(O)c2c(=O)cc(-c3ccccc3Cl)oc2c1[C@H]1CCN(C)C[C@H]1O [Example 1, ditrifluoroacetate] noted as 97.1

compound CCNC(=O)Oc1cc(O)c2c(=O)cc(-c3ccccc3Cl)oc2c1[C@H]1CCN(C)C[C@H]1O [Comparative Example 1, reference compound] , Residual rate observed: 7.3

The compound listed as CCN(CCC1CCCCN1)C(=O)Oc1cc(O)c2c(=O)cc(-c3ccccc3Cl)oc2c1[C@H]1CCN(C)C[C@H]1O (some centres unmarked) shows Residual rate equal to 86.3

Documented Residual rate of CCCN(CC1CCCCN1)C(=O)Oc1cc(O)c2c(=O)cc(-c3ccccc3Cl)oc2c1[C@H]1CCN(C)C[C@H]1O (some centres unmarked) : 94.4

###

Experiment: Evaluation of conversion rate to active form in buffer solution (Experimental Example 1)
Assay type: physicochemical
Settings: pH5.0, 1 hr
I'd appreciate it if you marked entries TRUE when Production rate of Alvocidib is lower than 9% and FALSE when it is not.

Record excerpt, results attached:
compound: CCNC(=O)O[C@@H]1CN(C)CC[C@@H]1c1c(O)cc(O)c2c(=O)cc(-c3ccccc3Cl)oc12 [Comparative Example 4, reference compound]
label_class: TRUE
//
compound: C[C@H](N)C(=O)O[C@@H]1CN(C)CC[C@@H]1c1c(O)cc(O)c2c(=O)cc(-c3ccccc3Cl)oc12 [Comparative Example 7, reference compound]
label_class: FALSE
//
compound: CNC(=O)Oc1cc(O)c2c(=O)cc(-c3ccccc3Cl)oc2c1[C@H]1CCN(C)C[C@H]1O [Comparative Example 2, reference compound]
label_class: FALSE

With those in mind, consider the next compound.
In plain terms, does CN1CC[C@H](c2c(O)cc(O)c3c(=O)cc(-c4ccccc4Cl)oc23)[C@H](OC(=O)[C@@H](N)CO)C1 [Comparative Example 9, reference compound] come in under 9% for Production rate of Alvocidib?
TRUE

###

Assay: Evaluation of conversion rate to active form in buffer solution (Experimental Example 1)
Type: physicochemical
Conditions: pH6.0, 1 hr
Residual rate listing for selected compounds.
Output should be the measured figure followed by the unit it is expressed in.

Worked examples follow.
compound: C[C@H](N)C(=O)O[C@@H]1CN(C)CC[C@@H]1c1c(O)cc(O)c2c(=O)cc(-c3ccccc3Cl)oc12 [Comparative Example 7, reference compound]
endpoint_result: 51.7%
//
compound: CCOC(=O)O[C@@H]1CN(C)CC[C@@H]1c1c(O)cc(O)c2c(=O)cc(-c3ccccc3Cl)oc12 [Comparative Example 3, reference compound]
endpoint_result: 90.9%
//
compound: CNC(=O)Oc1cc(O)c2c(=O)cc(-c3ccccc3Cl)oc2c1[C@H]1CCN(C)C[C@H]1O [Comparative Example 2, reference compound]
endpoint_result: 0.0%
//
compound: CCNC(=O)O[C@@H]1CN(C)CC[C@@H]1c1c(O)cc(O)c2c(=O)cc(-c3ccccc3Cl)oc12 [Comparative Example 4, reference compound]
endpoint_result: 97.7%
//
compound: CNC(=O)O[C@@H]1CN(C)CC[C@@H]1c1c(O)cc(O)c2c(=O)cc(-c3ccccc3Cl)oc12 [Comparative Example 5, reference compound]
endpoint_result: 93.5%
//
compound: CC(C)[C@H](N)C(=O)O[C@@H]1CN(C)CC[C@@H]1c1c(O)cc(O)c2c(=O)cc(-c3ccccc3Cl)oc12 [Comparative Example 10, reference compound]
endpoint_result: 88.6%
//
compound: CN1CC[C@H](c2c(O)cc(O)c3c(=O)cc(-c4ccccc4Cl)oc23)[C@H](OC(=O)CN)C1 [Comparative Example 8, reference compound]
endpoint_result: 63.5%
//
compound: CN1CC[C@H](c2c(O)cc(O)c3c(=O)cc(-c4ccccc4Cl)oc23)[C@H](OC(=O)[C@@H](N)CO)C1 [Comparative Example 9, reference compound]
endpoint_result: 69.2%

Given item CN1CC[C@H](c2c(OC(=O)N(C)CCN)cc(O)c3c(=O)cc(-c4ccccc4Cl)oc23)[C@H](O)C1 [Comparative Example 13, reference compound] , the value recorded as its Residual rate is 56.3%

Recorded result, CNCCN(C)C(=O)Oc1cc(O)c2c(=O)cc(-c3ccccc3Cl)oc2c1[C@H]1CCN(C)C[C@H]1O [Comparative Example 14, reference compound] , Residual rate: 1.2%

###

Assay: Evaluation of conversion rate to active form in buffer solution (Experimental Example 1)
Format: physicochemical
Settings: pH7.0, 2 hr, 37° C., 25 umol/L in buffer solution
Counter-ions that a name gives are not always drawn.
observation_type: Production rate of Alvocidib (%)
Please respond with the number in % and leave the unit unwritten.

compound: CCCN(CC1CCCCN1)C(=O)Oc1cc(O)c2c(=O)cc(-c3ccccc3Cl)oc2c1[C@H]1CCN(C)C[C@H]1O (some centres unmarked) [Example 9]
endpoint_result: 66.1

compound: CN1CC[C@H](c2c(OC(=O)N(Cc3ccccc3)CC3CCCCN3)cc(O)c3c(=O)cc(-c4ccccc4Cl)oc23)[C@H](O)C1 (some centres unmarked) [Example 15]
endpoint_result: 69.8

compound: CCN(CC1CCCCN1)C(=O)Oc1cc(O)c2c(=O)cc(-c3ccccc3Cl)oc2c1[C@H]1CCN(C)C[C@H]1O (some centres unmarked) [Example 7, dihydrochloride]
endpoint_result: 52.9

compound: CN1CC[C@H](c2c(OC(=O)N(C)CC3CCCCN3)cc(O)c3c(=O)cc(-c4ccccc4Cl)oc23)[C@H](O)C1 (some centres unmarked) [Example 8]
endpoint_result: 48.2

compound: CN1CC[C@H](c2c(OC(=O)N(CCF)CC3CCCCN3)cc(O)c3c(=O)cc(-c4ccccc4Cl)oc23)[C@H](O)C1 (some centres unmarked) [Example 11]
endpoint_result: 67.0

compound: CN1CC[C@H](c2c(OC(=O)N(C)C[C@H]3CCCCN3)cc(O)c3c(=O)cc(-c4ccccc4Cl)oc23)[C@H](O)C1 [Example 4]
endpoint_result: 41.1

Now look at this entry.
Notebook: COCCN(CC1CCCCN1)C(=O)Oc1cc(O)c2c(=O)cc(-c3ccccc3Cl)oc2c1[C@H]1CCN(C)C[C@H]1O (some centres unmarked) [Example 12] , Production rate of Alvocidib read as 60.2

###

Assay: Evaluation of conversion rate to active form in buffer solution (Experimental Example 1)
Type: physicochemical
Conditions: pH5.0, 2 hr
Protocol: For Examples 1 to 16 and Comparative Examples 1 to 14, the attrition rate of the test compound and the conversion rate of the test compound to Alvocidib in a buffer solution were calculated by the following method. Examples 1 to 16 and Comparative Examples 1 to 14 were each left in buffer solutions adjusted to pH 5.0, 5.5, 6.0, 6.5, 7.0 and 7.4, respectively, at a concentration of 25 umol/L at 37° C. […]
observation_type: Residual rate (%)
Give your result in % as a bare value.

Recorded results for 2 molecules are shown here.
molecule: CNC(=O)O[C@@H]1CN(C)CC[C@@H]1c1c(O)cc(O)c2c(=O)cc(-c3ccccc3Cl)oc12 [Comparative Example 5, reference compound]
endpoint_result: 93.9
//
molecule: CCOC(=O)O[C@@H]1CN(C)CC[C@@H]1c1c(O)cc(O)c2c(=O)cc(-c3ccccc3Cl)oc12 [Comparative Example 3, reference compound]
endpoint_result: 90.2

Entry CN1CC[C@H](c2c(O)cc(O)c3c(=O)cc(-c4ccccc4Cl)oc23)[C@H](OC(=O)CN)C1 [Comparative Example 8, reference compound] ; Residual rate = 78.1
